Target: Sentrin-specific protease 8 (Homo sapiens)
Assay: blockers of SENP8 deneddylase activity – biochemical, fluorescence, Nedd8 protein substrate, uHTS, primary screen (AID 602440)
Conditions: recombinant SENP8, Nedd8 substrate fluorescence; at 20 µM; active compounds read high
In all, about 360,000 compounds went through this assay and about 2,300 (0.64%) were called active. This excerpt belongs to a sample that is enriched for actives.
Each entry below carries its recorded inhibition.

1. CCOC(=O)c1ccc(COC(=O)CCc2nc(-c3ccccc3)c(-c3ccccc3)o2)cc1 : -13.2% (inactive)
2. COc1ccc(NC(=O)CSc2nncc(=O)n2N)cc1OC : 8% (inactive)
3. O=S(=O)(Nc1ccc(-n2cnnn2)cc1)c1ccc(Cl)cc1 : 5.5% (inactive)

Kindly note the recorded inhibition for COC(=O)CCCC1=CC2=C(c3ccccc3)C(=O)C(C)(OC(=O)C3CCCC3)C(=O)C2=CN1c1ccc(OC)cc1 (centres undefined) , which is -154% (inactive)

----------
Target: Sentrin-specific protease 8 (Homo sapiens) (UniProt Q96LD8)
Sequence (Q96LD8 whole entry, looked up): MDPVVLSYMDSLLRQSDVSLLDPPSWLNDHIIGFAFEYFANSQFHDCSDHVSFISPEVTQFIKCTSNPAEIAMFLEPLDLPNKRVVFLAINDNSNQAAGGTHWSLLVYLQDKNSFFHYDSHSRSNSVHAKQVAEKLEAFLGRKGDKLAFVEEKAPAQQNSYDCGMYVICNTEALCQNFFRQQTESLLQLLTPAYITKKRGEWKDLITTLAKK
Test: blockers of SENP8 deneddylase activity – biochemical, fluorescence, Nedd8 protein substrate, uHTS, primary screen (AID 602440)
Conditions: recombinant SENP8, Nedd8 substrate fluorescence; at 20 µM; active compounds read high
Out of some 360,000 compounds screened, about 2,300 (0.64%) were called active. This is one part of a sample in which actives are shown more often than they occur.
MEASUREMENT_LABEL: inhibition (%)
Just the number please, in %, no unit attached.

Check out these entries, answers already filled in.
1) COc1cccc(N(CC(=O)NCCSc2ccccn2)S(C)(=O)=O)c1 : 40.3
2) COc1ccccc1NC(=O)C1=C(C)Nc2nnnn2C1c1cccc(Br)c1 (centres undefined) : 6
3) O=C(NCCCN1CCN(c2ccc(F)cc2)CC1)Nc1ccc([N+](=O)[O-])cc1 : 44.8
4) CCC(C)NC(=O)c1ccc(NC(=O)CC2SC(N3CCCCC3)=NC2=O)cc1 (centres undefined) : 0.4
5) CCOC(=O)c1sc2nc(C)nc(Nc3ccc(OC)c(OC)c3)c2c1C : -82.2

`Cc1ccc(Nc2nc(CSc3nnc(-c4ccncc4)n3-c3ccccc3C)cs2)cc1` yielded inhibition of 11.2

----------
Target: Sentrin-specific protease 8 (Homo sapiens)
Experiment: blockers of SENP8 deneddylase activity – biochemical, fluorescence, Nedd8 protein substrate, uHTS, primary screen (AID 602440)
Conditions: recombinant SENP8, Nedd8 substrate fluorescence; at 20 µM; active compounds read high
In all, about 360,000 compounds went through this assay and about 2,300 (0.64%) were called active. This is one part of a sample in which actives are shown more often than they occur.
Criterion met means recorded inhibition is 10% or above; Criterion not met means it is below 10%.

// below: answered compounds
1. CCOC(=O)CNC(=O)CN1C(=O)CCSc2ccccc21 : Criterion met
2. O=C(OCC(=O)c1cccs1)c1ccc([N+](=O)[O-])o1 : Criterion met
3. O=C(NCc1ccco1)/C(=C\c1cccc([N+](=O)[O-])c1)NC(=O)c1ccco1 : Criterion not met
4. CN1CCN(S(=O)(=O)c2ccc(N3CCN(c4ccccc4O)CC3)c([N+](=O)[O-])c2)CC1 : Criterion met

Does the reported inhibition for `CCOC(=O)CNC(=O)/C=C/c1c(Cl)cccc1Cl` fall at or above the 10% mark? Criterion met

Form field: inhibition at least 10%? Entry: `CN=C(Nc1cccc(S(=O)(=O)N2CCOCC2)c1)c1ccccc1` Criterion not met

Given the entry `O=C(CSc1ccc([N+](=O)[O-])cn1)Nc1ccc(N2CCOCC2)cc1` , answer whether its inhibition meets or surpasses 10%. Criterion met

----------
Target: Sentrin-specific protease 8 (Homo sapiens)
Test: blockers of SENP8 deneddylase activity – biochemical, fluorescence, Nedd8 protein substrate, uHTS, primary screen (AID 602440)
Settings: recombinant SENP8, Nedd8 substrate fluorescence; at 20 µM; active compounds read high
Among all 360,000 compounds or so, about 2,300 (0.64%) were called active. Shown is part of a subset that was picked to be rich in actives.
Each entry below carries its recorded inhibition.
Give just the number in %; leave the unit off.

Recorded inhibition, per entry:
1) COc1ccccc1C(=O)NC(=S)Nc1ccc(N2CCOCC2)cc1 : 14.8
2) Cc1ccc(C(=O)N/N=C\c2cc(Br)c(Br)o2)cn1 : 58.6

Entry `O=C(Nc1ccc(C(=O)NCc2ccccc2Cl)cc1)C1=CSCCO1` , Sentrin-specific protease 8 (Homo sapiens) data, inhibition value: -35.3

Record `CCN(CC)c1ccc(S(=O)(=O)N2CCCCC2)cc1NC(=O)C1=COCCO1` has Sentrin-specific protease 8 (Homo sapiens) inhibition equal to 5.2

Record `Oc1ccc(N=Cc2sc3ccccc3c2Cl)cc1` / Sentrin-specific protease 8 (Homo sapiens), inhibition recorded as 87.5

----------
Target: Sentrin-specific protease 8 (Homo sapiens) (UniProt Q96LD8)
Assay: blockers of SENP8 deneddylase activity – biochemical, fluorescence, Nedd8 protein substrate, uHTS, primary screen (AID 602440)
Details: recombinant SENP8, Nedd8 substrate fluorescence; at 20 µM; active compounds read high
The whole screen tested about 360,000 compounds, of which about 2,300 (0.64%) were called active. This is one part of a sample in which actives are shown more often than they occur.
MEASUREMENT_LABEL: inhibition

Example results:
1. CCOCCCNC(=O)c1c[nH]c2cc(C)ccc2c1=O : 5.8% (inactive)
2. O=C(N/N=C/c1ccc(Br)o1)c1cncc(Br)c1 : -18.2% (inactive)
3. CCN(CC)C(=O)CCC(=O)Nc1ccc(C(=O)OC)cc1 : 51.9% (active)
4. COc1ccc(CN2CN(C(C)C)CSC2=S)cc1 : 6.1% (inactive)
5. CC(=O)N1C(=O)/C(=C2\SC(=S)N(NC(=O)c3ccc(O)cc3)C2=O)c2ccccc21 : 53.5% (active)

Next, consider the following compound.
Briefly, inhibition measured for COC(=O)c1ccc(C2C3=C(Nc4nnnn42)c2ccccc2OC3)cc1 (stereo unspecified) : -273% (inactive)
